Biological target: T1, neuropilin-1 (NRP1) on HEK293 cells overexpressing NRP1 (UniProt O14786 22-923, limits assumed)
T1 construct: whole, on cells
Experiment: flow cytometry, HEK293-NRP1 vs HEK293
Hi there, I'd appreciate the recorded 100 nM FACS (MFI Ratio) for every entry that follows.

| BINDER | 100 nM FACS (MFI Ratio) |
| --- | --- |
| NRP1-273 (antibody, IgG2, V domains shown) VH: EVQLLESGGGLVQPGGSLRLYCAASGFTFGSYGMSWVRQAPGKGLEWVSSISGSGGSTYYTDSVKGRFTISRDNSKNTLYLQMNSLRAEDTAVYYCVRALAGRRDHWGQGTLVTVSS VL: DIQMTQSPSSLSASVGDRVTITCRASRRISTYLNWYQQKPGKAPKLLIYAASSLHAGVPSRFSGSGSGTDFTLTISSLQPEDFATYYCQQGYSTPLTFGGGTKVEIK | 6.2 |

Please turn your attention to the following entry.
Task item: Could you share which 100 nM FACS (MFI Ratio) value was measured for NRP1-281 (antibody, IgG2, V domains shown) VH: EVQLLESGGGLVQPGGSLRLSCAASGFTFRSLAVSWVRQAPGKGLEWVSTITGSGGATYYADSVKGRFTISRDNSKNTLYLQMNSLRAEDTAVYYCVRALAGRRDHWGQGTLVTVSS VL: DIQMTQSPSSLSASVGDRVTITCRASQSIRTSLNWYQQKPGKAPKLLIYAASALHSGVPSRFSGSGSGTDFTLTISSLQPEDFATYYCQQSYSTLPITFGGGTKVEIK ?
Reply: 1.4
